tested on: Human immunodeficiency virus 1; assay: Antiviral activity against HIV1 3B bearing wild type protease infected in human MT4 cells assessed as inhibition of virus-induced cytopathic effect after 5 days by XTT assay; format: functional, organism-based; settings: Human immunodeficiency virus 1, 3B, MT4, 120 h
MEASURED_PARAMETER: pEC50
Note: pEC50 values are expressed as the negative base-10 logarithm of concentration in M.

Use these answered entries as a reference point.
CNC(=O)[C@@H](NC(=O)[C@H](OCc1ccccc1)[C@H](O)[C@@H](O)[C@@H](OCc1ccccc1)C(=O)N[C@H]1c2ccccc2C[C@H]1O)C1COC1; 5.27
CNC(=O)[C@H](CCOC)NC(=O)[C@H](OCc1ccccc1)[C@H](O)[C@@H](O)[C@@H](OCc1ccccc1)C(=O)N[C@H]1c2ccccc2C[C@H]1O; 5.74
CC(C)[C@H](NC(=O)[C@H](OCc1ccccc1)[C@H](O)[C@@H](O)[C@@H](OCc1ccccc1)C(=O)N[C@H]1c2ccccc2C[C@H]1O)C(=O)NCC(F)(F)F; 6.82
CNC(=O)[C@@H](NC(=O)[C@H](OCc1ccccc1)[C@H](O)[C@@H](O)[C@@H](OCc1ccccc1)C(=O)N[C@H]1c2ccccc2C[C@H]1O)C(C)COC (single isomer, unassigned; 4d); 5.46
COCCNC(=O)[C@@H](NC(=O)[C@H](OCc1ccccc1)[C@H](O)[C@@H](O)[C@@H](OCc1ccccc1)C(=O)N[C@H]1c2ccccc2C[C@H]1O)C(C)C; 6.60

Prompt: What measured pEC50 goes with CNC(=O)[C@@H](NC(=O)[C@H](OCc1ccccc1)[C@H](O)[C@@H](O)[C@@H](OCc1ccccc1)C(=O)N[C@H]1c2ccccc2C[C@H]1O)C(C)COC (single isomer, unassigned; 4e) ?
Response: 6.48

Prompt: What measured pEC50 goes with `CNC(=O)[C@@H](NC(=O)[C@H](OCc1ccccc1)[C@H](O)[C@@H](O)[C@@H](OCc1ccccc1)C(=O)N[C@H]1c2ccccc2C[C@H]1O)C(C)C` ?
Response: 6.85

Prompt: What measured pEC50 goes with `CC(C)[C@H](NC(=O)[C@H](OCc1ccccc1)[C@H](O)[C@@H](O)[C@@H](OCc1ccccc1)C(=O)N[C@H]1c2ccccc2C[C@H]1O)C(=O)NCCF` ?
Response: 6.77

Source: ChEMBL document CHEMBL1154714
